# measured target: Cystic fibrosis transmembrane conductance regulator (Homo sapiens, UniProt P13569)
# Sequence (P13569 whole entry): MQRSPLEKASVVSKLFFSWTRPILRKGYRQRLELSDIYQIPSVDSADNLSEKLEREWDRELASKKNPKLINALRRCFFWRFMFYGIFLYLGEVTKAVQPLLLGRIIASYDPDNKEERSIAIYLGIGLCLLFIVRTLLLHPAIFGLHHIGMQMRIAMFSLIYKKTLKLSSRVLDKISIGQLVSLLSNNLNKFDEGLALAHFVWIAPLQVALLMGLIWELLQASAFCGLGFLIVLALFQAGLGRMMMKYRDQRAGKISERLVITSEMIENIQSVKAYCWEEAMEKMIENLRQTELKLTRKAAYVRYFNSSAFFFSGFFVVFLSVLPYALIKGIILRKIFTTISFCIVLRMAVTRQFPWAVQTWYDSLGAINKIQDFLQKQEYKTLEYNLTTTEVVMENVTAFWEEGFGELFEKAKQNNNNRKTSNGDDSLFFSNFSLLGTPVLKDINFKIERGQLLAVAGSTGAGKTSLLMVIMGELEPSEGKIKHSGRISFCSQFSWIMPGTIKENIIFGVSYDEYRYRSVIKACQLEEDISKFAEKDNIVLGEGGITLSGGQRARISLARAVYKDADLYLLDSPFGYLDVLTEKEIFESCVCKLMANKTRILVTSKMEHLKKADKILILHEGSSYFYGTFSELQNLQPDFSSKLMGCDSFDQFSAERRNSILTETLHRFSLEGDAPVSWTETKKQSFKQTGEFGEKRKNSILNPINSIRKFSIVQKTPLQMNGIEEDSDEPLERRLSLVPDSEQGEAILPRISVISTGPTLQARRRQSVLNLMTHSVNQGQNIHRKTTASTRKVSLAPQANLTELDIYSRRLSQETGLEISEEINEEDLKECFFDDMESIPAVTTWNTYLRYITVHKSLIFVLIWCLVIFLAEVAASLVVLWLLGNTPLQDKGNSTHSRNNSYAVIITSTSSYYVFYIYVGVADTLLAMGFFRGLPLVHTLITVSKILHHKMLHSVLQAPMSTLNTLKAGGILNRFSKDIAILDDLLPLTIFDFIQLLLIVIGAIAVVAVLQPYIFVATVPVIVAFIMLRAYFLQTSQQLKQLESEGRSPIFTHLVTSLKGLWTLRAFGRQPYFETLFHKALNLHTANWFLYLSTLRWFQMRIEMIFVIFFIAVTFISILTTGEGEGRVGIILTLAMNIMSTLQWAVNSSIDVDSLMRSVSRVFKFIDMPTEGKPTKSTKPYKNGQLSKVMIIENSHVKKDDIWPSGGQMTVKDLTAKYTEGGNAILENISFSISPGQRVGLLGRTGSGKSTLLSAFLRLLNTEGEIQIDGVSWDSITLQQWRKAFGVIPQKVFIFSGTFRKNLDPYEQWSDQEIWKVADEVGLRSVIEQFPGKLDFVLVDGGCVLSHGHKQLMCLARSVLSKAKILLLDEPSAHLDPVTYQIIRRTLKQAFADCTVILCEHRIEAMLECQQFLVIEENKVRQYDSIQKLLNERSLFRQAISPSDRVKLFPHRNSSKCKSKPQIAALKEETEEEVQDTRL
# test name: Potentiation of wild-type CFTR (unknown origin) expressed in FRT cells assessed as chloride transport by measuring membrane potential in presence of forskolin
# Format: cell-based
reported property: EC50 (nM)
Reply numerically in nM, unit not repeated.

Field: example entries. Status: answers known.
molecule	reported property	value units	obs value
CC(C)c1ccc(NC(=O)C(c2ccccc2)N(C)C(=O)Cc2c[nH]c3ccccc23)cc1 (stereo not given)	EC50	nM	990
COc1nc(C(=O)NC[C@](C)(O)C(F)(F)F)c(N)cc1C(F)(F)F [ICENTICAFTOR]	EC50	nM	113
C[C@](O)(CNC(=O)c1nc(Br)c(C(F)(F)F)cc1N)C(F)(F)F	EC50	nM	43
COC(=O)c1cc(-c2ccco2)c(C(F)(F)F)cc1N	EC50	nM	30000

Note: attention shifts to another entry.
Asked: Recall the reported EC50 of CC(C)(C)c1cc(C(C)(C)C)c(NC(=O)c2c[nH]c3ccccc3c2=O)cc1O [IVACAFTOR] when tested on Cystic fibrosis transmembrane conductance regulator (Homo sapiens, UniProt P13569).
Given back: 70

* * *

# test name: Cmax in Sprague-Dawley rat at 3 mg/kg, po and 0.5 mg/kg, iv measured upto 48 hrs by LC-MS/MS analysis
# Format: ADME, organism-based
# Design: dose 3 mg/kg, time <=48
# test parameters: in vivo
reported property: Cmax (nM)
Reply numerically in nM, unit not repeated.

Asked: Identify the reported Cmax for the following entry. Nc1cc(C(F)(F)F)c(Br)nc1C(=O)NC[C@@H](O)C(F)(F)F
Given back: 271

* * *

# measured target: Cystic fibrosis transmembrane conductance regulator (Homo sapiens, UniProt P13569, F508DEL)
# Sequence (P13569 as listed by the source): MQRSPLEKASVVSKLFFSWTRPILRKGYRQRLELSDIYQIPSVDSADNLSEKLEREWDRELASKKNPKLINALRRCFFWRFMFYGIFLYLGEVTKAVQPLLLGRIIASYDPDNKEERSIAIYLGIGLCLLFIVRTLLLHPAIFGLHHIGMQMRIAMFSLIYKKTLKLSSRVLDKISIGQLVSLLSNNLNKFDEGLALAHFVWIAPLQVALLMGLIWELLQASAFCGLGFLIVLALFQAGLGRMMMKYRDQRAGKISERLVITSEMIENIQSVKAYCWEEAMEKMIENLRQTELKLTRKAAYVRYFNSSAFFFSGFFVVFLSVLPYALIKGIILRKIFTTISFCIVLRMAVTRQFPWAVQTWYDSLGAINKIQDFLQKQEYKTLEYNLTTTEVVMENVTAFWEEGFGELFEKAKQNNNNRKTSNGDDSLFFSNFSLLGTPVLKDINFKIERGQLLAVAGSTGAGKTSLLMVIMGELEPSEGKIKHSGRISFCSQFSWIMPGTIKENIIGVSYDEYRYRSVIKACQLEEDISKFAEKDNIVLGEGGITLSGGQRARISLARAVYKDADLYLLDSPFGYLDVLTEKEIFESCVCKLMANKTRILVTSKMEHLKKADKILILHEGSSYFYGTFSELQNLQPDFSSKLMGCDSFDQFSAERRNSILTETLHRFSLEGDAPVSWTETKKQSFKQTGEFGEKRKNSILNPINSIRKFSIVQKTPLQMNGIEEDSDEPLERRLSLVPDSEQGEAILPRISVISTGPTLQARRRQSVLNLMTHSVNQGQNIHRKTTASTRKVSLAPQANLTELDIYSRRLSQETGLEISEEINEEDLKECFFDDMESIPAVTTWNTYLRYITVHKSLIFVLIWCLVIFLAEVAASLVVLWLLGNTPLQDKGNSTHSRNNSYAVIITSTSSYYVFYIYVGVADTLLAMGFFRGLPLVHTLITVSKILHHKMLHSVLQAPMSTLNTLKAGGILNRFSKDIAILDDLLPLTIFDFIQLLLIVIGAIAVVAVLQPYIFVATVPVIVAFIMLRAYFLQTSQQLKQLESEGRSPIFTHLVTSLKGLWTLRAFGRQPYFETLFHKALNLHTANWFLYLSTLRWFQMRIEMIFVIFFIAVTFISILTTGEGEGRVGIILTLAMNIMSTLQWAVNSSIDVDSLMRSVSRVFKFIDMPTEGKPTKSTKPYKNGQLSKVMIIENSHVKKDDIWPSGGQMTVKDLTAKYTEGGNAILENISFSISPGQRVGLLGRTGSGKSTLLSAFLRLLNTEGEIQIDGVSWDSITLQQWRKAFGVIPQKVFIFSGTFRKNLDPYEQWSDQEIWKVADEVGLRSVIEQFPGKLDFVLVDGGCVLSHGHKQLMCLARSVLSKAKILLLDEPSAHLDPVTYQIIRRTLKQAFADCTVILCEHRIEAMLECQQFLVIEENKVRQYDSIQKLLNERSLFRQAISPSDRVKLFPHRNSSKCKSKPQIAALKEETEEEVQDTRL
# test name: Potentiation of CFTR F508del mutant (unknown origin) expressed in CHO cells assessed as chloride transport by measuring membrane potential incubated for 5 to 30 mins in presence of forskolin by Quattro assay
# Format: cell-based
// reported EC50 for each item listed
Reply numerically in nM, unit not repeated.

Field: example entries. Status: answers known.
molecule	value units	obs value
COC(=O)c1nc(-c2ccco2)c(C(F)(F)F)cc1N	nM	5310
CC(O)CNC(=O)c1nc(Br)c(C(F)(F)F)cc1N (racemic)	nM	70
CN(C)C(=O)c1cc(-c2ccco2)c(C(F)(F)F)cc1N	nM	30000
Nc1cc(C(F)(F)F)c(Br)nc1C(=O)NC[C@@H](O)C(F)(F)F	nM	9
C[C@](O)(CNC(=O)c1nc(Br)c(C(F)(F)F)cc1N)C(F)(F)F	nM	15
COC(=O)c1cc(-c2ncco2)c(C(F)(F)F)cc1N	nM	240

Asked: Identify the reported EC50 for the following entry. Nc1cc(C(F)(F)F)c(Br)nc1C(=O)NC[C@H](O)C(F)(F)F
Given back: 23

Asked: Identify the reported EC50 for the following entry. Nc1cc(C(F)(F)F)c(-c2ccco2)cc1C(=O)O
Given back: 5830

Asked: Identify the reported EC50 for the following entry. CN(C)c1nc(C(=O)NCC(C)(O)C(F)(F)F)c(N)cc1C(F)(F)F (stereo in doubt; 31a)
Given back: 20

Asked: Identify the reported EC50 for the following entry. CCc1nc(C(=O)NCC(C)(O)C(F)(F)F)c(N)cc1C(F)(F)F (stereo in doubt; 28b)
Given back: 43

Asked: Identify the reported EC50 for the following entry. COC(=O)c1cc(I)c(C(F)(F)F)cc1N
Given back: 362

Asked: Identify the reported EC50 for the following entry. CCc1nc(C(=O)NCC(C)(O)C(F)(F)F)c(N)cc1C(F)(F)F (stereo in doubt; 28a)
Given back: 8

Asked: Identify the reported EC50 for the following entry. CN(C)c1nc(C(=O)NCC(C)(O)C(F)(F)F)c(N)cc1C(F)(F)F (stereo in doubt; 31b)
Given back: 46

Asked: Identify the reported EC50 for the following entry. COC(=O)c1cc(C2CCCO2)c(C(F)(F)F)cc1N (racemic)
Given back: 462

* * *

# test name: Oral bioavailability in Sprague-Dawley rat at 3 mg/kg measured upto 48 hrs by LC-MS/MS analysis
# Assay type: ADME, organism-based
# test parameters: in vivo
reported property: bioavailability (%)
Reply numerically in %, unit not repeated.

Field: example entries. Status: answers known.
compound	value units	obs value
C[C@](O)(CNC(=O)c1nc(Br)c(C(F)(F)F)cc1N)C(F)(F)F	%	114
Nc1cc(C(F)(F)F)c(Br)nc1C(=O)NC[C@@H](O)C(F)(F)F	%	32
C[C@](O)(CNC(=O)c1nc(C(F)(F)F)c(C(F)(F)F)cc1N)C(F)(F)F	%	75

Note: attention shifts to another entry.
Asked: Identify the reported bioavailability for the following entry. COc1nc(C(=O)NC[C@](C)(O)C(F)(F)F)c(N)cc1C(F)(F)F [ICENTICAFTOR]
Given back: 90

* * *

# test name: Toxicity in Wistar Han rat assessed as NOAEL
# test parameters: in vivo, dose 10 mg/kg
reported property: NOAEL (mg/kg)
Reply numerically in mg/kg, unit not repeated.

Asked: Identify the reported NOAEL for the following entry. COc1nc(C(=O)NC[C@](C)(O)C(F)(F)F)c(N)cc1C(F)(F)F [ICENTICAFTOR]
Given back: 10

* * *

# test name: Clearance in Sprague-Dawley rat at 3 mg/kg, po and 1 mg/kg, iv measured upto 48 hrs by LC MS/MS analysis
# Assay type: ADME, organism-based
# test parameters: in vivo
reported property: clearance (mL/min/kg)
Reply numerically in mL/min/kg, unit not repeated.

Field: example entries. Status: answers known.
chemical string	value units	clearance
C[C@](O)(CNC(=O)c1nc(C(F)(F)F)c(C(F)(F)F)cc1N)C(F)(F)F	mL/min/kg	15
COc1nc(C(=O)NC[C@](C)(O)C(F)(F)F)c(N)cc1C(F)(F)F	mL/min/kg	5

Note: attention shifts to another entry.
Asked: Identify the reported clearance for the following entry. C[C@](O)(CNC(=O)c1nc(Br)c(C(F)(F)F)cc1N)C(F)(F)F
Given back: 17

* * *

# test name: Oral bioavailability in Beagle dog at 3 mg/kg after 48 hrs by LC-MS/MS analysis
# Assay type: ADME, organism-based, Canis lupus familiaris
# test parameters: in vivo
reported property: bioavailability (%)
Reply numerically in %, unit not repeated.

Asked: Identify the reported bioavailability for the following entry. COc1nc(C(=O)NC[C@](C)(O)C(F)(F)F)c(N)cc1C(F)(F)F
Given back: 146

* * *

# measured target: Cystic fibrosis transmembrane conductance regulator (Homo sapiens, UniProt P13569, F508DEL)
# test name: Potentiation of CFTR F508 deletion mutant (unknown origin) expressed in HBE cells assessed as change in short circuit current in presence of forskolin and amiloride
# Type: cell-based
reported property: pEC50
// pEC50 is dimensionless: -log10 of concentration (M)

Field: example entries. Status: answers known.
chemical string	reported property	obs value
COc1nc(C(=O)NC[C@](C)(O)C(F)(F)F)c(N)cc1C(F)(F)F	pEC50	7.41
C[C@](O)(CNC(=O)c1nc(Br)c(C(F)(F)F)cc1N)C(F)(F)F	pEC50	7.60

Asked: Identify the reported pEC50 for the following entry. CC(C)(C)c1cc(C(C)(C)C)c(NC(=O)c2c[nH]c3ccccc3c2=O)cc1O
Given back: 7.17

* * *

# measured target: Cystic fibrosis transmembrane conductance regulator (Homo sapiens, UniProt P13569, F508DEL)
# test name: Potentiation of CFTR F508del mutant (unknown origin) expressed in FRT cells assessed as chloride transport by measuring membrane potential in presence of forskolin
# Assay type: cell-based
reported property: pEC50
// pEC50 is dimensionless: -log10 of concentration (M)

Asked: Identify the reported pEC50 for the following entry. C[C@](O)(CNC(=O)c1nc(Br)c(C(F)(F)F)cc1N)C(F)(F)F
Given back: 7.74

Asked: Identify the reported pEC50 for the following entry. COC(=O)c1cc(-c2ccco2)c(C(F)(F)F)cc1N
Given back: 6.74

Asked: Identify the reported pEC50 for the following entry. CC(C)c1ccc(NC(=O)C(c2ccccc2)N(C)C(=O)Cc2c[nH]c3ccccc23)cc1 (stereo not given)
Given back: 6.59

Asked: Identify the reported pEC50 for the following entry. CC(C)(C)c1cc(C(C)(C)C)c(NC(=O)c2c[nH]c3ccccc3c2=O)cc1O
Given back: 7.31

Asked: Identify the reported pEC50 for the following entry. COc1nc(C(=O)NC[C@](C)(O)C(F)(F)F)c(N)cc1C(F)(F)F
Given back: 7.10

* * *

# measured target: UniProt P13569
# test name: Potentiation of wild type CFTR (unknown origin) expressed in HBE cells assessed as change in short circuit current in presence of forskolin and amiloride
# Assay type: cell-based
// reported EC50 for each item listed
Reply numerically in µM, unit not repeated.

chemical string	EC50, µM
CC(C)(C)c1cc(C(C)(C)C)c(NC(=O)c2c[nH]c3ccccc3c2=O)cc1O	0.034

Note: attention shifts to another entry.
Asked: Identify the reported EC50 for the following entry. COc1nc(C(=O)NC[C@](C)(O)C(F)(F)F)c(N)cc1C(F)(F)F
Given back: 0.072

Reference source: ChEMBL document CHEMBL5036320
